target: human Tie2 (Homo sapiens); construct: human Tie2 corresponding to amino acids 776-1124 of the intracellular domain was generated by PCR; made in house; host or cells: baculovirus expression system (vector pFastBacGT); assay: Tie2 kinase inhibition: phosphorylation of GST-PLC (SH2-SH3 fragments) by GST-Tie2, 33P-ATP flashplate; type: biochemical; conditions: read-out: Tie2 % Inhib. 10 μM
Sequence (Q02763 776-1124): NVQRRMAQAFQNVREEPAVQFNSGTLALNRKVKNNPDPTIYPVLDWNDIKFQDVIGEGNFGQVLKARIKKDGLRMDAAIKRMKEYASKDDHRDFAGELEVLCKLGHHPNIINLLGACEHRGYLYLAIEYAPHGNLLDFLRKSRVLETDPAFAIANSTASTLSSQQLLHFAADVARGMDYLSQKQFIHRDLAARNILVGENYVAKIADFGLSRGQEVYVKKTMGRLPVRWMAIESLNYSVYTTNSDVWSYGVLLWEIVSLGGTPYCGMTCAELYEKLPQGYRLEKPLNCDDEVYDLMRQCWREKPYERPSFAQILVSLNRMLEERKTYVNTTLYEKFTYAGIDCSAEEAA
Parameter: inhibition at 10 µM (%)

Completed entries (count: 4):
INSERT INTO assay_data (molecule, parameter, unit_of_measure, quantitative_readout) VALUES
  ('Cc1cc2nc(-c3[nH]nc4c3CCN(CC3CC3)C4)[nH]c2cc1C [Chemistry 21]', 'inhibition at 10 µM', '%', 33),
  ('Cc1cc2nc(-c3[nH]nc4c3CCN(S(=O)(=O)Cc3ccccc3)C4)[nH]c2cc1C [Chemistry 24]', 'inhibition at 10 µM', '%', 91.5),
  ('Cc1cc2nc(-c3[nH]nc4c3CCN(C(=O)Cc3ccccc3)C4)[nH]c2cc1C [Chemistry 43]', 'inhibition at 10 µM', '%', 84.4),
  ('CCCCC(=O)N1CCc2c(n[nH]c2-c2nc3cc(C)c(C)cc3[nH]2)C1 [Chemistry 56]', 'inhibition at 10 µM', '%', 92.5);

A: COc1cccc(S(=O)(=O)N2CCc3c(n[nH]c3-c3nc4cc(C)c(C)cc4[nH]3)C2)c1 [Chemistry 38]
B: CCCCN1CCc2c(n[nH]c2-c2nc3cc(C)c(C)cc3[nH]2)C1 [Chemistry 20]
Hi team, can someone confirm which has the larger inhibition at 10 µM: A or B ? Thanks. Please identify the chosen entry by its label.
A

P: Cc1cc2nc(-c3[nH]nc4c3CCN(C(=O)Nc3cccc(Cl)c3)C4)[nH]c2cc1C [Chemistry 62]
Q: CCCCNC(=O)N1CCc2c(n[nH]c2-c2nc3cc(C)c(C)cc3[nH]2)C1 [Chemistry 64]
R: Cc1cc2nc(-c3[nH]nc4c3CCN(S(=O)(=O)c3ccccc3)C4)[nH]c2cc1C [Chemistry 23]
Please rank these molecules by inhibition at 10 µM in descending order. Provide the ranking by listing each label in its place in the requested order.
R, Q, P
(R: 92.5%, Q: 38.5%, P: 21%)

====

target: human KDR enzyme (Homo sapiens, UniProt P35968); construct: The cytoplasmic domain of the human KDR enzyme was cloned in GST fusion form; GST; made in house; host or cells: SF21 insect cells (baculovirus, pFastBac); experiment: KDR kinase inhibition: phosphorylation of PLCγ SH2-SH3 substrate by KDR enzyme, 33P-ATP scintillation plate; format: biochemical; conditions: read-out: KDR % Inhib. 10 μM
Sequence (P35968 786-1356 limits assumed): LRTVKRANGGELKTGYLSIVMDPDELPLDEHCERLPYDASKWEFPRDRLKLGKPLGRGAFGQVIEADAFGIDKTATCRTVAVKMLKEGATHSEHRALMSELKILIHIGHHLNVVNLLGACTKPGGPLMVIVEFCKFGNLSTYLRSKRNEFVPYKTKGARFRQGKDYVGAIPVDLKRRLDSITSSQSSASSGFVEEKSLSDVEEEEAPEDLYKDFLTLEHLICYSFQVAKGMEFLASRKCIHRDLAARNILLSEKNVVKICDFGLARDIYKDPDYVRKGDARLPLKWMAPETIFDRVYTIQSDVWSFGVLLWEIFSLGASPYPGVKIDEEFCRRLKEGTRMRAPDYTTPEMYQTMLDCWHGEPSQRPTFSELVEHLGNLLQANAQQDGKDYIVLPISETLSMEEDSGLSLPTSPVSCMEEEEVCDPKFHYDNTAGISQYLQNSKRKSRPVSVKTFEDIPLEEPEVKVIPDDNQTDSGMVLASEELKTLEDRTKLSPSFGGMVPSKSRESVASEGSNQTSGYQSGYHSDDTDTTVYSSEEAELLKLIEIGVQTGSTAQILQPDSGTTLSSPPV
Parameter: inhibition at 10 µM (%)

Recorded inhibition at 10 µM, per entry:
INSERT INTO results (molecule, parameter, unit_of_measure, quantitative_readout) VALUES
  ('Cc1cc2nc(-c3[nH]nc4c3CCN(C(=O)Nc3ccccc3C)C4)[nH]c2cc1C [Chemistry 68]', 'inhibition at 10 µM', '%', 19.5),
  ('Cc1cc2nc(-c3[nH]nc4c3CCNC4)[nH]c2cc1C [Chemistry 22]', 'inhibition at 10 µM', '%', 3.65),
  ('Cc1cc2nc(-c3[nH]nc4c3CCN(S(=O)(=O)c3ccc(Cl)cc3)C4)[nH]c2cc1C [Chemistry 26]', 'inhibition at 10 µM', '%', 27.8);

A: Cc1cc2nc(-c3[nH]nc4c3CCN(C(=O)c3cccs3)C4)[nH]c2cc1C [Chemistry 57]
B: CCCN1CCc2c(n[nH]c2-c2nc3cc(C)c(C)cc3[nH]2)C1 [Chemistry 18]
Of A and B , whose reported inhibition at 10 µM is the larger number? Respond with the label that goes with your answer.
A
